This collection of values is drawn from patent US20200131274A1.

# system: cynomolgus PSMA, full-length, on CHO cells (cynomolgus, UniProt A0A2K5VNZ0 1-750)
# assay summary: cell-based or functional assay
measurement name: His-ZAP cell killing, cyno PSMA Average EC50 (pM)
Give the value, in units of pM, as a plain number.

Ask | Input 1.16-6GS-2.17 (bispecific antibody, linker (G4S)6) EVQLLESGGGLVQPGGSLRLSCAASGFSFSSYALSWVRQAPGKGLEWVSSIGENNHTTDYADTVKGRFTISRDNSKNTLYLQMNSLRVEDTAVYYCVKDGVHWGQGTLVTVSSGGGGSGGGGSGGGGSGGGGSGGGGSGGGGSEVQLVESGGGVVQPGRSLRLSCAASGFSFSGYGMHWVRQAPGKGLEWVAYISYDASNKYYADNVKGRFTISRDNSKNTLYLQMNSLRAEDTAVYYCAKDPAWGLRLGESSSYDFDIWGQGTMVTVSS , output reported His-ZAP cell killing, cyno PSMA Average EC50.
Reply | 11
